conditionDescription: in methanol, 288.04 K

compound: COC(=O)/C=C(\C)NC(C(=O)[O-])c1ccc(O)cc1.[K+] (stereo unspecified)
solubility (mole fraction): 0.00325

---

conditionDescription: in ethanol, 298.07 K
endpointName: solubility (mole fraction)

molecule: COC(=O)/C=C(\C)NC(C(=O)[O-])c1ccc(O)cc1.[K+] (stereo unspecified)
testResult: 0.000438

---

conditionDescription: in ethanol, 278.22 K
endpointName: solubility (mole fraction)

compound: COC(=O)/C=C(\C)NC(C(=O)[O-])c1ccc(O)cc1.[K+] (stereo unspecified)
testResult: 0.000319

---

conditionDescription: in ethanol, 293.04 K

compound: COC(=O)/C=C(\C)NC(C(=O)[O-])c1ccc(O)cc1.[K+] (stereo unspecified)
solubility (mole fraction): 0.0004
